Molecular target: T1, human IL-33 (R&D Systems, #3625-IL-010/CF) (human, UniProt O95760 112-270)
T1 construct: Commercial recombinant protein; also called hIL-33; interleukin-33
T1 sequence (looked up): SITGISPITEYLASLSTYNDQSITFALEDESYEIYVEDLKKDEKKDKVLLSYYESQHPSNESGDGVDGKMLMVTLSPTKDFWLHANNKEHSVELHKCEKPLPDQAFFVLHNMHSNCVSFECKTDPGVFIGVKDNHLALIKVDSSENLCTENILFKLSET
Test: SPR 37C, pH6.0 chase, mAb captured
API: label(entry) gives Fulfilled if the entry's koff is strictly smaller than 0.004 s⁻¹; on equality or larger values it gives Not fulfilled.

Below are worked cases with known answers.
{"columns": ["Binder", "Class"],
 "data": [
  ["H4H9665P (antibody, human IgG4, V domains shown, Human IgG4 Fc (H4H)) VH: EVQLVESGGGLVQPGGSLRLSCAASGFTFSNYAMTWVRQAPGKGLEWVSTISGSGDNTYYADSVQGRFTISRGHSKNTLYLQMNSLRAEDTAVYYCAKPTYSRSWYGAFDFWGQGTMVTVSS VL: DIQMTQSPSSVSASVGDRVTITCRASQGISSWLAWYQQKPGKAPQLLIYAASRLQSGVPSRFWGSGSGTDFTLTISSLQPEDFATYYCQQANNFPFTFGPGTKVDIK", "Not fulfilled"],
  ["H4H9671P (antibody, human IgG4, V domains shown, Human IgG4 Fc (H4H)) VH: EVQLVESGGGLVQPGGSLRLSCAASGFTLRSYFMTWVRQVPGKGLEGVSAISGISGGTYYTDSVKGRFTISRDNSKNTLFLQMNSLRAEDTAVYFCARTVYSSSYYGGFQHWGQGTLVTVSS VL: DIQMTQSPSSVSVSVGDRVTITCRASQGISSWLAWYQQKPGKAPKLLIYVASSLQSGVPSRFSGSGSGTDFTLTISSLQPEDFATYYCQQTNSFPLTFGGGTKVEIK", "Not fulfilled"],
  ["H4H9662P (antibody, V domains shown, Human IgG4 Fc (H4H)) VH: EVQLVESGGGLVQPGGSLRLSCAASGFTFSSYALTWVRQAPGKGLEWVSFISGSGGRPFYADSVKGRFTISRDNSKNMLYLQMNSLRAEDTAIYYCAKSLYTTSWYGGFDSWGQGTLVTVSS VL: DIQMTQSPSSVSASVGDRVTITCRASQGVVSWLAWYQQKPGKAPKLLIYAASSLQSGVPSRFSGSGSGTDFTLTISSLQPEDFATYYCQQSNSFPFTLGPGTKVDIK", "Fulfilled"],
  ["H4H9666P (antibody, human IgG4, V domains shown, Human IgG4 Fc (H4H)) VH: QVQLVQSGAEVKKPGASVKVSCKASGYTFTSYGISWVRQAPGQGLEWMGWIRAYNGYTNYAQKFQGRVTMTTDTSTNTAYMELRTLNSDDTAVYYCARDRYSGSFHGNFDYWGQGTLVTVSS VL: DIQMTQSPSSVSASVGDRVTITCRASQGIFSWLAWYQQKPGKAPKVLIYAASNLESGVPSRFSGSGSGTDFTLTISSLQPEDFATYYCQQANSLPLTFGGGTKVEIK", "Not fulfilled"],
  ["H4H9629P (antibody, human IgG4, V domains shown, Human IgG4 Fc (H4H)) VH: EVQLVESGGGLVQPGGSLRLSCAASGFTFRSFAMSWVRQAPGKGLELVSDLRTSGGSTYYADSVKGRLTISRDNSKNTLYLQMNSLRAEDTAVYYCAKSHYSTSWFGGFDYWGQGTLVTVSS VL: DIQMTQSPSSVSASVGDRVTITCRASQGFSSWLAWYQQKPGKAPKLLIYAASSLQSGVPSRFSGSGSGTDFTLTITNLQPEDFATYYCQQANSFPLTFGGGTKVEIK", "Not fulfilled"]
]}

Please state whether koff is below 0.004 s⁻¹ for H4H9664P (antibody, human IgG4, V domains shown, Human IgG4 Fc (H4H)) VH: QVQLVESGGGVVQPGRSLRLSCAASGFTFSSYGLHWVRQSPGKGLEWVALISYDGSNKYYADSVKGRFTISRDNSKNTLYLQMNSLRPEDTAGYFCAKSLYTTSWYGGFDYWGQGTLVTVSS VL: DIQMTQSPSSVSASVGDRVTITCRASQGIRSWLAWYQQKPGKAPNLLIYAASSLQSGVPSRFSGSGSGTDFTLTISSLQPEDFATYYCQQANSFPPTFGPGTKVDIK
Fulfilled

Does this binder meet the criterion koff < 0.004 s⁻¹? H4H9663P (antibody, human IgG4, V domains shown, Human IgG4 Fc (H4H)) VH: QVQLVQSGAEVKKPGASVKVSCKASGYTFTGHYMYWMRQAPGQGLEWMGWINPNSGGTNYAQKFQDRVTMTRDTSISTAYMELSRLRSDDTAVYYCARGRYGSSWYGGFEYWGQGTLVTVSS VL: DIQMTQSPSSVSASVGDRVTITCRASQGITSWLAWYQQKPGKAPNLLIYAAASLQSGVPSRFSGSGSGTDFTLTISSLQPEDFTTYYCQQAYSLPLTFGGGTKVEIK
Not fulfilled

Is 0.004 s⁻¹ strictly greater than the binder's reported koff? binder: H4H9670P (antibody, V domains shown, Human IgG4 Fc (H4H)) VH: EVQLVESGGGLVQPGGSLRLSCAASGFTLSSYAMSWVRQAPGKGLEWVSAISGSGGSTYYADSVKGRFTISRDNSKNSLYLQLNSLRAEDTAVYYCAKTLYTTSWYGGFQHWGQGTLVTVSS VL: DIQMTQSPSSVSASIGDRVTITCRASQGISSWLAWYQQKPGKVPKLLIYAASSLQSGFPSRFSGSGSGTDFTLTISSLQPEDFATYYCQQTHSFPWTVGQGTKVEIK
Fulfilled

Lab note: confirm whether the reported koff for this binder is below 0.004 s⁻¹, equality not counting. binder: H4H9659P (antibody, human IgG4, V domains shown, Human IgG4 Fc (H4H)) VH: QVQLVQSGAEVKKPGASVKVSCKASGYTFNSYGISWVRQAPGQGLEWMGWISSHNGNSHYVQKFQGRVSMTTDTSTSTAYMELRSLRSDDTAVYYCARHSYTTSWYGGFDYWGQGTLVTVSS VL: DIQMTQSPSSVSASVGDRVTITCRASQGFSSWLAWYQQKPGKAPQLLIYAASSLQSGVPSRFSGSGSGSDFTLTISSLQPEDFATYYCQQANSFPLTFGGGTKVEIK
Fulfilled

Does H4H9672P (antibody, human IgG4, V domains shown, Human IgG4 Fc (H4H)) VH: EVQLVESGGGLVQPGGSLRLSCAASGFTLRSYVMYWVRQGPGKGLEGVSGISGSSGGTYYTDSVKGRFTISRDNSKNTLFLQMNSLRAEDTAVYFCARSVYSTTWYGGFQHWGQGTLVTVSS VL: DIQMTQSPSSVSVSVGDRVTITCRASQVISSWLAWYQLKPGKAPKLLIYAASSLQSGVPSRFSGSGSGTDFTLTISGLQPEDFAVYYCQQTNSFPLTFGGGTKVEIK have koff strictly under 0.004 s⁻¹?
Not fulfilled
